biological target: Tyrosine-protein phosphatase non-receptor type 22 (Homo sapiens) (UniProt Q9Y2R2); assay: PTPN22 lymphoid phosphatase activity blockers – biochemical, fluorescence intensity, uHTS (AID 1779); conditions: recombinant LYP phosphatase, at 11.5 µM;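 note: plate controls were vehicle with enzyme for no effect and no enzyme for full effect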
Sequence (Q9Y2R2 whole entry, looked up): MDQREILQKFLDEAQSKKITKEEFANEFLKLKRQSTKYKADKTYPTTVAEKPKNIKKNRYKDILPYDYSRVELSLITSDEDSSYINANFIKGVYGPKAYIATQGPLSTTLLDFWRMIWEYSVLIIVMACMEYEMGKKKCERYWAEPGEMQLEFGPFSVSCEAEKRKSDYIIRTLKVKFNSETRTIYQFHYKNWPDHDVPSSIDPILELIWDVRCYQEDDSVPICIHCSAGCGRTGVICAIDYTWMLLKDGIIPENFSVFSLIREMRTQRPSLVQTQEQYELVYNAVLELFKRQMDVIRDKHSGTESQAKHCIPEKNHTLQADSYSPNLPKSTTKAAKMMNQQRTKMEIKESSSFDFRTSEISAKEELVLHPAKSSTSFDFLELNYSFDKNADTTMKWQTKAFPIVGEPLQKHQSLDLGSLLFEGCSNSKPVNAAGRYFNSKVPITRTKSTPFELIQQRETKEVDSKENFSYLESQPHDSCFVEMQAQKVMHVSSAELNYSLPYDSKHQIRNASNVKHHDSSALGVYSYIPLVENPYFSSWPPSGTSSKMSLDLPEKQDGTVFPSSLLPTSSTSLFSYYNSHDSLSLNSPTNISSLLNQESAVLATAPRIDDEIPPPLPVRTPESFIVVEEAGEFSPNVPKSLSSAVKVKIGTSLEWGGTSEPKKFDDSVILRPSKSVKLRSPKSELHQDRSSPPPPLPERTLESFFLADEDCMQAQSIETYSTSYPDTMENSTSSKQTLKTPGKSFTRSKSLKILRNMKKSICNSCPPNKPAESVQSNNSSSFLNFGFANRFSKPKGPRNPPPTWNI
In all, about 290,000 compounds went through this assay and about 160 (0.055%) were called active. Cut-off read from the data, not from the text of the source: active = inhibition above about 50%; inactive = the rest. The list comes from a sample in which actives are over-represented; it also holds close analogues and randomly drawn compounds.
Possible outcomes: true (active), false (inactive)

INSERT INTO assay_data (molecule, system, answer_label) VALUES
  ('Cc1c(N=Cc2cc(Br)cc(Br)c2O)cccc1C(=O)O', 'Tyrosine-protein phosphatase non-receptor type 22 (Homo sapiens) (UniProt Q9Y2R2)', 'false'),
  ('COc1ccc(/C=C2\SC(=S)N(CCCC(=O)Nc3ccc(C(=O)O)cc3)C2=O)cc1OC', 'Tyrosine-protein phosphatase non-receptor type 22 (Homo sapiens) (UniProt Q9Y2R2)', 'false'),
  ('COc1cc(/C=C2\SC(=O)N(c3cccc(Cl)c3)C2=O)cc([N+](=O)[O-])c1O', 'Tyrosine-protein phosphatase non-receptor type 22 (Homo sapiens) (UniProt Q9Y2R2)', 'true'),
  ('Cc1occc1C(=O)NNS(=O)(=O)c1ccc(Cl)cc1', 'Tyrosine-protein phosphatase non-receptor type 22 (Homo sapiens) (UniProt Q9Y2R2)', 'true'),
  ('Cc1occc1C(=O)NNS(=O)(=O)c1ccc([N+](=O)[O-])cc1', 'Tyrosine-protein phosphatase non-receptor type 22 (Homo sapiens) (UniProt Q9Y2R2)', 'false'),
  ('COc1cc(/C=C2\SC(=O)N(Cc3ccc(Cl)cc3)C2=O)cc([N+](=O)[O-])c1O', 'Tyrosine-protein phosphatase non-receptor type 22 (Homo sapiens) (UniProt Q9Y2R2)', 'false'),
  ('COc1ccc(C2CC(c3ccc(C)cc3)=NN2C(=O)CCC(=O)O)cc1OC (configuration not stated)', 'Tyrosine-protein phosphatase non-receptor type 22 (Homo sapiens) (UniProt Q9Y2R2)', 'true'),
  ('N#Cc1c(/N=C\c2ccc(O)c([N+](=O)[O-])c2)sc2c1CCCC2', 'Tyrosine-protein phosphatase non-receptor type 22 (Homo sapiens) (UniProt Q9Y2R2)', 'false'),
  ('COc1cc(/C=C2\SC(=O)N(c3ccc(Cl)cc3)C2=O)cc([N+](=O)[O-])c1O', 'Tyrosine-protein phosphatase non-receptor type 22 (Homo sapiens) (UniProt Q9Y2R2)', 'true'),
  ('O=C1CC(c2ccccc2)CN1C(=O)c1cccnc1 (configuration not stated)', 'Tyrosine-protein phosphatase non-receptor type 22 (Homo sapiens) (UniProt Q9Y2R2)', 'false'),
  ('COc1cc(/C=C2\SC(=O)N(Cc3ccc(F)cc3)C2=O)cc([N+](=O)[O-])c1O', 'Tyrosine-protein phosphatase non-receptor type 22 (Homo sapiens) (UniProt Q9Y2R2)', 'false'),
  ('CN(C)/C=N/NC(=O)c1ccccc1', 'Tyrosine-protein phosphatase non-receptor type 22 (Homo sapiens) (UniProt Q9Y2R2)', 'false'),
  ('Cn1c(=O)c2ncn(CC(=O)N/N=C/c3ccco3)c2n(C)c1=O', 'Tyrosine-protein phosphatase non-receptor type 22 (Homo sapiens) (UniProt Q9Y2R2)', 'false'),
  ('CCCNC(=O)c1ccccc1N1CCN(CCCCN2C(=O)C3CCCCN3C2=O)CC1 (configuration not stated)', 'Tyrosine-protein phosphatase non-receptor type 22 (Homo sapiens) (UniProt Q9Y2R2)', 'false'),
  ('CC1CCCC(NC(=O)COC(=O)CCc2ccccc2)C1C (configuration not stated)', 'Tyrosine-protein phosphatase non-receptor type 22 (Homo sapiens) (UniProt Q9Y2R2)', 'false'),
  ('O=C(c1ccccc1)N1CCN(C(=O)c2cccnc2)CC1', 'Tyrosine-protein phosphatase non-receptor type 22 (Homo sapiens) (UniProt Q9Y2R2)', 'false'),
  ('COc1ccc(C2=NN(C(=O)CCC(=O)O)C(c3ccc(OC)c(OC)c3)C2)cc1 (configuration not stated)', 'Tyrosine-protein phosphatase non-receptor type 22 (Homo sapiens) (UniProt Q9Y2R2)', 'false'),
  ('O=C(COc1ccccc1F)Nc1cc(S(=O)(=O)N2CCOCC2)ccc1N1CCOCC1', 'Tyrosine-protein phosphatase non-receptor type 22 (Homo sapiens) (UniProt Q9Y2R2)', 'false'),
  ('O=C(CCN1C(=O)c2ccccc2S1(=O)=O)Nc1ccccc1O', 'Tyrosine-protein phosphatase non-receptor type 22 (Homo sapiens) (UniProt Q9Y2R2)', 'false'),
  ('O=C(CCCN1C(=O)/C(=C/c2cccs2)SC1=S)Nc1cc([N+](=O)[O-])ccc1O', 'Tyrosine-protein phosphatase non-receptor type 22 (Homo sapiens) (UniProt Q9Y2R2)', 'false'),
  ('COc1ccc(C2CC(c3ccc(Br)cc3)=NN2C(=O)CCC(=O)O)cc1OC (configuration not stated)', 'Tyrosine-protein phosphatase non-receptor type 22 (Homo sapiens) (UniProt Q9Y2R2)', 'false'),
  ('O=C1CCC(c2ccccc2)N1C(=O)c1cccnc1 (configuration not stated)', 'Tyrosine-protein phosphatase non-receptor type 22 (Homo sapiens) (UniProt Q9Y2R2)', 'true');

* * *

biological target: Tyrosine-protein phosphatase non-receptor type 22 (Homo sapiens) (UniProt Q9Y2R2); experiment: PTPN22 lymphoid phosphatase activity blockers – biochemical, fluorescence intensity, uHTS (AID 1779); conditions: recombinant LYP phosphatase, at 11.5 µM, stronger effect = higher value;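 note: plate controls were vehicle with enzyme for no effect and no enzyme for full effect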
Out of some 290,000 compounds screened, about 160 (0.055%) were called active. The sample holds actives, similar compounds and a random draw of the others, so the mix is not that of the screen.
Reported inhibition values follow for various molecules
quantity-measured: inhibition (%)

INSERT INTO assay_data (molecule, readout_number) VALUES
  ('Cn1nc(C(C)(C)C)cc1NC(=O)Nc1ccc(Cl)cc1', 0),
  ('Cc1ccc(C(=O)N2CCN(S(=O)(=O)N3CCCCC3)CC2)cc1', -11.4),
  ('COc1ccc(NS(=O)(=O)c2ccc3c(c2)[C@H]2C=CC[C@H]2[C@@H](c2ccc(C(=O)O)cc2)N3)cc1', 4.5),
  ('COc1cccc(NS(=O)(=O)c2ccc3c(c2)C2C=CCC2C(c2ccc(C(=O)O)cc2)N3)c1 (stereo not given)', 16.1),
  ('O=C(NCc1ccccc1)C(c1ccccc1F)N(CC1CCCO1)C(=O)c1ccccn1 (stereo not given)', -7.1);

* * *

Reported inhibition values follow for various molecules
molecular target: Tyrosine-protein phosphatase non-receptor type 22 (Homo sapiens) (UniProt Q9Y2R2); test: PTPN22 lymphoid phosphatase activity blockers – biochemical, fluorescence intensity, uHTS (AID 1779); conditions: recombinant LYP phosphatase, at 11.5 µM, stronger effect = higher value;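 note: plate controls were vehicle with enzyme for no effect and no enzyme for full effect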
Among all 290,000 compounds or so, about 160 (0.055%) were called active. The list comes from a sample in which actives are over-represented; it also holds close analogues and randomly drawn compounds.
quantity-measured: inhibition (%)

INSERT INTO results (molecule, quantity_measured, readout_number) VALUES
  ('CC(C)Cc1nc(S(=O)(=O)c2ccc(Cl)cc2)c(N2CCOCC2)o1', 'inhibition', 81.8),
  ('COC(=O)C(C(=O)NCC1CCCO1)C1CCCCCC1 (stereo not given)', 'inhibition', 86.6),
  ('O=C(c1cccs1)N1CCCC1', 'inhibition', -12),
  ('Cc1ccc(C(=O)N/N=C\c2cccs2)cn1', 'inhibition', 1.2),
  ('COc1ccc([N+](=O)[O-])cc1NC(=S)NC(NC(=O)C(c1ccccc1)c1ccccc1)C(Cl)(Cl)Cl (stereo not given)', 'inhibition', 8),
  ('COC(=O)C1CCN(Cc2ccc(OCCCN3CCN(c4ccc([N+](=O)[O-])cc4)CC3)cc2)CC1', 'inhibition', 78.6),
  ('COc1cccc(N(C(=O)Cn2nnc(-c3ccc(Cl)cc3)n2)C(C(=O)NCC2CCCO2)c2ccc(C)cc2)c1 (stereo not given)', 'inhibition', -1.9),
  ('CN(C)S(=O)(=O)N1CCc2ccc(NC(=O)C3CCCO3)cc2C1 (stereo not given)', 'inhibition', -10.7),
  ('O=C(N=C1SC2CS(=O)(=O)CC2N1Cc1ccccc1Cl)C1CC1 (stereo not given)', 'inhibition', -11.3),
  ('CCOc1ccc(C(=O)Nc2ccc(Cl)cn2)cc1Cl', 'inhibition', 80.4),
  ('COc1ccc(C(=O)Nc2ccc(Cl)cn2)cc1Cl', 'inhibition', 0.7),
  ('Cc1cccc(-n2ccc(=O)c(C(=O)Nc3ccc(S(=O)(=O)Nc4onc(C)c4C)cc3)n2)c1', 'inhibition', -7.6),
  ('Cc1ccc(-c2csc(=S)[nH]2)cc1', 'inhibition', -4),
  ('CCOC(=O)C1CCN(C(=O)Nc2ccc3nc(-c4ccco4)c(-c4ccco4)nc3c2)CC1', 'inhibition', 53.4),
  ('CC1Cc2ccccc2N1CC(=O)Nc1cccc(S(N)(=O)=O)c1 (stereo not given)', 'inhibition', 52.1),
  ('COc1ccc2c(-c3ccccc3)cc(N3CCOCC3)nc2c1', 'inhibition', 72.7),
  ('CCCCc1nc(S(=O)(=O)c2ccc(Cl)cc2)c(N2CCOCC2)o1', 'inhibition', -7.7),
  ('COc1ccc(Cn2c3nc4ccccc4nc3c3c(=O)n(Cc4ccco4)cnc32)cc1', 'inhibition', 24.1),
  ('COc1ccccc1CC(=O)Nc1ccc(S(=O)(=O)N2CCN(C)CC2)cc1', 'inhibition', -10.4),
  ('CCCCN(C)CCC(=O)Nc1ccc2c(c1)CCC2', 'inhibition', -2.9),
  ('COCCNC(=O)c1ccc2c(Cl)c3c(nc2c1)CCC3', 'inhibition', -7.1),
  ('CCCc1cc(C(=O)NC2CCCN(Cc3ccccc3F)C2)no1 (stereo not given)', 'inhibition', -1.5),
  ('CC1Cc2ccccc2N1CC(=O)Nc1ccc(S(N)(=O)=O)cc1 (stereo not given)', 'inhibition', -7.9),
  ('Cc1cc(Cl)ccc1OCc1n[nH]c(=S)n1C1CCCCC1', 'inhibition', 4),
  ('CCCS(=O)(=O)N1CCc2ccc(NC(=O)C3CCCO3)cc2C1 (stereo not given)', 'inhibition', -11.2),
  ('COC(=O)C(C(=O)NCC1CCCO1)C1CCCC1 (stereo not given)', 'inhibition', -6.5),
  ('Cc1ccc(-n2ccc(=O)c(C(=O)Nc3ccc(S(=O)(=O)Nc4onc(C)c4C)cc3)n2)cc1', 'inhibition', 2.8),
  ('Cc1cc2ncc(Cl)nc2cc1C', 'inhibition', 59.3),
  ('Cc1cnc2cc(Cl)c(Cl)cc2n1', 'inhibition', -3.4),
  ('COc1ccc2c(C)cc(N3CCOCC3)nc2c1', 'inhibition', -0.1),
  ('CC1Cc2ccccc2N1CC(=O)Nc1ccc(S(=O)(=O)N(C)C)cc1 (stereo not given)', 'inhibition', 0.3),
  ('Fc1ccccc1Cn1nnc2c(NCCc3ccccn3)ncnc21', 'inhibition', -5.2),
  ('Cc1ccc(C)c(CN2C(=O)COc3ccccc32)c1', 'inhibition', -5.6),
  ('O=C(Nc1ccc2nc(-c3ccco3)c(-c3ccco3)nc2c1)N1CCCCCC1', 'inhibition', 17.4),
  ('c1ccc(-c2cc(N3CCOCC3)nc3ccccc23)cc1', 'inhibition', 2.6),
  ('Cc1ccccc1NC(=S)NC(NC(=O)c1ccccc1C)C(Cl)(Cl)Cl (stereo not given)', 'inhibition', -5.7),
  ('CCOC(=O)c1sc2nc3c(SCC(=O)O)cc(C(=O)c4cc(F)ccc4O)cn3c(=O)c2c1C', 'inhibition', 5.2),
  ('CC(C)(C)c1nc(S(=O)(=O)c2ccc(Cl)cc2)c(N2CCOCC2)o1', 'inhibition', -10.6),
  ('CCOC(=O)c1sc2nc3c(SCCC(=O)O)cc(C(=O)c4cc(OC)ccc4O)cn3c(=O)c2c1C', 'inhibition', 53.3),
  ('CCOC(=O)C1CCN(C(=O)Nc2ccc3nc(C)c(C)nc3c2)CC1', 'inhibition', -2.2),
  ('CCCN1C(=O)COc2ccc(C(=O)c3ccccc3C(=O)O)cc21', 'inhibition', -4.6),
  ('O=C(COc1ccc(Cl)cc1Cl)Nc1ccc(Cl)cn1', 'inhibition', -4.3),
  ('CC(C)CCNC(=O)c1ccc2c(SCC(=O)O)c3c(nc2c1)CCC3', 'inhibition', -1.8),
  ('COC(=O)C1CCN(CCCOc2ccc(CN3CCN(c4ccc([N+](=O)[O-])cc4)CC3)cc2)CC1', 'inhibition', -8),
  ('CCOC(=O)C(C(=O)NCC1CCCO1)C1CCCCC1 (stereo not given)', 'inhibition', -4.2);
